The reader will find reported DMS PSSM value, F (position 6) values listed item by item below.
Tested on: G3BP1 NFT2
Format: binding, human
settings: library DMS-CoV; bait G3BP1 NFT2; prey N; peptide APRITFGGPSDSTGSN; listed as aa = residue placed at this position; column sums to 1
measurement kind: DMS PSSM value, F (position 6)

APRITFGGPSDSTGSN F6L (APRITLGGPSDSTGSN)	0.004454
APRITFGGPSDSTGSN F6W (APRITWGGPSDSTGSN)	0
APRITFGGPSDSTGSN F6E (APRITEGGPSDSTGSN)	0
APRITFGGPSDSTGSN F6H (APRITHGGPSDSTGSN)	0
APRITFGGPSDSTGSN F6K (APRITKGGPSDSTGSN)	0
APRITFGGPSDSTGSN F6D (APRITDGGPSDSTGSN)	0

###

Listing of recorded DMS-derived PSSM value, position A6 by entry.
Test system: PABPC1 PABC
Type: binding, human
settings: DMS-BM library, bait PABPC1 PABC, prey ATXN2, peptide TLNPNAKEFNPRSFSQ; A = wild type, row aa = residue at this position
measurement kind: DMS-derived PSSM value, position A6

TLNPNAKEFNPRSFSQ	0.3958
TLNPNAKEFNPRSFSQ A6W (TLNPNWKEFNPRSFSQ)	0
TLNPNAKEFNPRSFSQ A6E (TLNPNEKEFNPRSFSQ)	0
TLNPNAKEFNPRSFSQ A6F (TLNPNFKEFNPRSFSQ)	0

###

Tested on: PABPC1 PABC
Type: binding, human
settings: DMS-BM library, bait PABPC1 PABC, prey ATXN2, peptide KSTLNPNAKEFNPRSF; N = wild type, row aa = residue at this position
Label met for high-side DMS-derived PSSM value, position N12 (at or above 0.02) and not met for low-side DMS-derived PSSM value, position N12 (below it).

KSTLNPNAKEFNPRSF N12D (KSTLNPNAKEFDPRSF)	not met
KSTLNPNAKEFNPRSF N12H (KSTLNPNAKEFHPRSF)	met
KSTLNPNAKEFNPRSF N12I (KSTLNPNAKEFIPRSF)	met
KSTLNPNAKEFNPRSF	met
KSTLNPNAKEFNPRSF N12G (KSTLNPNAKEFGPRSF)	met
KSTLNPNAKEFNPRSF N12P (KSTLNPNAKEFPPRSF)	not met
KSTLNPNAKEFNPRSF N12V (KSTLNPNAKEFVPRSF)	met
KSTLNPNAKEFNPRSF N12T (KSTLNPNAKEFTPRSF)	met
KSTLNPNAKEFNPRSF N12L (KSTLNPNAKEFLPRSF)	not met
KSTLNPNAKEFNPRSF N12A (KSTLNPNAKEFAPRSF)	met

###

Test system: PABPC1 PABC
Format: binding, human
settings: DMS-BM library, bait PABPC1 PABC, prey ATXN2, TLNPNAKEFNPRSF(averaged) over the two overlapping peptides; N = wild type, row aa = residue at this position
measurement kind: DMS-derived PSSM value (averaged), position N10

TLNPNAKEFNPRSF(averaged) N10T (TLNPNAKEFTPRSF)	0.03227
TLNPNAKEFNPRSF(averaged) N10I (TLNPNAKEFIPRSF)	0.01803
TLNPNAKEFNPRSF(averaged) N10S (TLNPNAKEFSPRSF)	0.02002
TLNPNAKEFNPRSF	0.05544
TLNPNAKEFNPRSF(averaged) N10P (TLNPNAKEFPPRSF)	0.03074
